- target.entity: UniProt:P53582
- assay.procedure: hMetAP1 inhibition
- Format: biochemical
- Description: Hydrolysis of the synthesized Met-S-C-Phe thiopeptolide substrate generates a free thiol group, which reacts with excessive DTNB instantly to produce a highly chromogenic product, 3-carboxyl-4-nitrothiophenol (ε412=13,600 M^−1cm^−1). Therefore, the enzymatic reaction catalyzed by MetAP can be continuously monitored at 412 nm on a SpectraMAX 340 microplate reader. Employed conventional screening method (Anal Biochem. 2000, 280: 159-65) […]
measurement.name: IC50 (µM)
Expressed in µM, but write only the number.

Recorded IC50 of O=C(Oc1cccnc1C(=O)Nc1nccs1)c1cccc([N+](=O)[O-])c1 , please. 7.3

Recorded IC50 of COc1cccnc1C(=O)Nc1nccs1 , please. 20.9

Recorded IC50 of COc1ccccc1C(=O)Oc1cccnc1C(=O)Nc1nccs1 , please. 15.4

Recorded IC50 of O=C(Nc1nccs1)c1ncccc1OCc1ccccc1 , please. 7.8

Recorded IC50 of O=C(Oc1cccnc1C(=O)Nc1nccs1)c1ccccc1 , please. 28.7

Recorded IC50 of CC(=O)Oc1cccnc1C(=O)Nc1nccs1 , please. 29

Recorded IC50 of Nc1cccnc1C(=O)Nc1nccs1 , please. 11

Recorded IC50 of O=C(Oc1cccnc1C(=O)Nc1nccs1)c1ccc(F)cc1 , please. 7

Recorded IC50 of O=C(Oc1cccnc1C(=O)Nc1nccs1)c1ccc(F)c(Br)c1 , please. 17.4
